meta.source: PubChem BioAssay AID1508625

For each of the compounds below, state its z-score.
assay-overview: small molecules boosting NK-mediated OVCAR3 lysis – imaging, primary NK cells, calcein-AM imaging, primary screen (AID 1508625);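 further: compound given to NK cells 16 h before adding targets at 1.5 to 1 ratio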;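 on z-score: more negative robust z means stronger NK killing of tumor cells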
particulars: OVCAR3 lysis by primary NK cells, at 5 µM; measured here: robust Z-score, single-point normalisation
Give bare numbers.

// field: z-score; key: COc1cc(OC)c(CN2CCN3CCCC3C2C)cc1Br (configuration not stated) ; value = -1.21

Entry CCCCC1CC(CN2C(=O)NC(C)(C)C2=O)OC1=O (configuration not stated) — recorded z-score = -0.811

According to the records, this compound COc1ccc(CNC(=O)CCN2C(=O)C3C4C=CC(CC4)C3C2=O)cc1 (configuration not stated) displays z-score of -1.67

According to the records, this compound `COc1ccccc1OCc1cccc([N+](=O)[O-])c1` displays z-score of -3.15

Below are some compounds; for each one, tell me its z-score.
1. O=C(COc1ccccc1F)N1CCc2ccccc2C1
2. Cc1ccc(-c2sc3nc(-c4ccccc4)ccc3c2N)c(C)c1
3. Cc1ccc(OCCCN2CCNCC2)c([N+](=O)[O-])c1

1. -1.68
2. -1.23
3. -0.864

---

Exercise: state measured corrected activity, negative = more killing for each of the compounds provided.
assay-overview: small molecules boosting NK-mediated OVCAR3 lysis – imaging, primary NK cells, calcein-AM imaging, primary screen (AID 1508625);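 further: compound given to NK cells 16 h before adding targets at 1.5 to 1 ratio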
particulars: OVCAR3 lysis by primary NK cells, at 5 µM
One number for each entry, in %.

Value of corrected activity, negative = more killing reported for the compound `O=C(Nc1ccc(Cl)cc1)c1ccc(F)c(S(=O)(=O)N2CCOCC2)c1` is -4.69

Quick request: corrected activity, negative = more killing for each listed item, please.
1. CC1(C)CC(c2csc(N)n2)CCO1 (stereo unspecified)
2. COC(=O)c1cc(NC(=O)c2cc3nc(-c4ccc(Cl)cc4)cc(C(F)(F)F)n3n2)cc(C(=O)OC)c1

-2.99
-8

---

What corrected activity, negative = more killing was measured for each of the following?
assay-overview: small molecules boosting NK-mediated OVCAR3 lysis – imaging, primary NK cells, calcein-AM imaging, primary screen (AID 1508625);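 further: compound given to NK cells 16 h before adding targets at 1.5 to 1 ratio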
particulars: OVCAR3 lysis by primary NK cells, at 5 µM
Give bare numbers, in %.

Worked set:
// `O=C(NCc1ccccn1)c1sc2cc([N+](=O)[O-])ccc2c1Cl` : corrected activity, negative = more killing value = -2.44

According to the records, this compound `COc1ccc(OC)c(NC(=O)CSc2nc3c([nH]c4ccccc43)c(=O)n2C)c1` displays corrected activity, negative = more killing of -8.66

What the record says about CC(C(=O)N1CCN(c2ccccc2)CC1)c1ccc([N+](=O)[O-])cc1 (stereo unspecified) : corrected activity, negative = more killing is -3.44

Reported corrected activity, negative = more killing ( `O=C(CSCc1ccccc1Cl)NCCc1ccc(Cl)cc1` ) = -1.86

Lab book: corrected activity, negative = more killing of CC(C)(C)C1CCC(=O)C(C2(O)C(=O)Nc3ccc(Br)cc32)C1 (stereo unspecified) noted as -3.34

Lab note: measured corrected activity, negative = more killing of `CCOC(=O)Cc1ccc(N(Cc2ccccc2)S(=O)(=O)c2cc(C)ccc2C)cc1` was -11.3

// field: corrected activity, negative = more killing; key: `O=C(O)c1cc(Cl)ccc1NS(=O)(=O)c1ccc(Cl)cc1` ; value = -1.75

Briefly, corrected activity, negative = more killing measured for `CCCn1c(C)nc2c(=O)oc3ccccc3c21` : 3.04

# corrected activity, negative = more killing (compound: `Cc1oc(-c2cccc(Br)c2)nc1CN1CCC(C(=O)NCc2ccc(Cl)cc2)CC1` ) is -6.33

The reported value for `COc1ccc(N2C3=C(C(=O)CC(C)(C)C3)C(c3cccc(F)c3)C3=C2CC(C)(C)CC3=O)c(OC)c1` in terms of corrected activity, negative = more killing is -1.83

Now for a further compound.
corrected activity, negative = more killing measured on `CC(C)(C)c1ccc(C(=O)Nc2ccc(Cl)c(NC(=O)c3ccccc3)c2)cc1` = -4.21
